molecular target: Recombinant soluble trimeric human BAFF (furin-cleaved human BAFF 134-285) (human, UniProt Q9Y275 134-285); assay: cell-based or functional assay
Endpoint Name: Soluble trimeric huBAFF (50 pM) Neutralization IC90
Enter your answer as a number in pM; do not include the unit.

Ask | Answer with the recorded Soluble trimeric huBAFF (50 pM) Neutralization IC90 for the binder listed here: 435A6B3 (antibody, V domains shown) VH: EVQLQQSGPELVKPGASMKMSCKASGYTFTSYVMHWMKQKPGQGLEWIGYLNPNNDGTKYNEKFKGKATLTSDKSSSTAYMELSSLTSEDSAVYYCARGDYSNYFYWYFDVWGAGTTVSVSS VL: DIKMTPSPSSMYASLGERVTITCKASQDINRYLSWFQQKPGKSPKTLIYRANRLVDGVPSRFSGSGSGQDYSLTISSLEYEDMGIYYCLQYDEFPYTFGGGTKLEIK
Reply | 294

Ask | Please report the measured Soluble trimeric huBAFF (50 pM) Neutralization IC90 for 1002E8A6 (antibody, V domains shown) VH: EVQLQQSGPELVKPGASVKMSCKASGYTITSYVMHWVKQKPGQGLEWIGYINPNNDGTKYNEKFKGKATLTSDKSSNTAYMELSSLTSEDSAVYYCARGDYSNYFYWYFDVWGAGTTVTVSS VL: DIKMTQSPSSMYASLGERVTITCKASQDINSYLTWFQQKPGKSPETLIYRANRLVSGVPSRFSGSGSGQDYSLTISSLEYEDMGIYSCLQYDEFPYTFGGGTKLEIK
Reply | 824
